molecular target: (MOUSE)NAT2, murine arylamine N-acetyltransferase Type 2 (Mus musculus); construct: pure recombinant; test: DTNB colorimetric assay of folate-dependent AcCoA hydrolysis, dose response
Sequence (P50295 whole entry): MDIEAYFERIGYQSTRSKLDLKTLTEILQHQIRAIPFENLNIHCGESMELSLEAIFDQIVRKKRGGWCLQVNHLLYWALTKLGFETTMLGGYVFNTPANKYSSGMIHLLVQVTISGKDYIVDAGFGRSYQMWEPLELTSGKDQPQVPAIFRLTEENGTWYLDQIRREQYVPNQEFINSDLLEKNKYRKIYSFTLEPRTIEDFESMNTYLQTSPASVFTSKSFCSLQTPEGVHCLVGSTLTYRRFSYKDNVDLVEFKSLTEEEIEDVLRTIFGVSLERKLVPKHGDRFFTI
Observation Type: pIC50
FYI, pIC50 means -log10 of a concentration in mol per litre.

Q: Which pIC50 value is on record for Cc1cc(C)cc(NC2=C(NS(=O)(=O)c3ccccc3)C(=O)c3ccccc3C2=O)c1 ?
A: 6.85

====

target: (HUMAN)NAT1, human arylamine N-acetyltransferase Type 1 (Homo sapiens); construct: pure recombinant; assay: folate concentration dependence of AcCoA hydrolysis (Michaelis-Menten fit); HPLC time course
Sequence (P18440 whole entry): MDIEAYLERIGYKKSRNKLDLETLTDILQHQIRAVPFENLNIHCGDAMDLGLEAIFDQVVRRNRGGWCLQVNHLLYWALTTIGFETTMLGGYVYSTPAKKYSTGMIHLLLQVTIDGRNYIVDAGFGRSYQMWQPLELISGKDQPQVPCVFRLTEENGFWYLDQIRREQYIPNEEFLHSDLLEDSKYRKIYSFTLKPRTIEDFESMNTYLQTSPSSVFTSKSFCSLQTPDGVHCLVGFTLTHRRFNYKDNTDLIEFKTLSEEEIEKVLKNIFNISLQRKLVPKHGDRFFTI
pKd: −log10 of the molar value.
Observation Type: pKd

Q: Which pKd value is on record for Nc1nc2ncc(CNc3ccc(C(=O)N[C@@H](CCC(=O)O)C(=O)O)cc3)nc2c(=O)[nH]1 [folate] ?
A: ~4.12
